Measured ASMS ratio (%) n = 2, listed per entry.
# assayed_system: Bcl-2 protein (Recombinant Human Bcl-2 Protein) (Homo sapiens)
# Construct: purchased Novus NBP2-34889
# Sequence (P10415 whole entry): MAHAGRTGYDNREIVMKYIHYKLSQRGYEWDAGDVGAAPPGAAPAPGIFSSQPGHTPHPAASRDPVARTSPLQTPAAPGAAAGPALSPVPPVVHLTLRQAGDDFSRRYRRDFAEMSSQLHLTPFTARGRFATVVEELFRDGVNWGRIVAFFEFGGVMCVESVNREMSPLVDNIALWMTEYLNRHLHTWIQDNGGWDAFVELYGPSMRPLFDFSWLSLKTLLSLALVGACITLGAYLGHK
# procedure_details: Binding evaluation of mixture library compounds to Bcl-2 using AS-MS (affinity selection mass spectrometry)
# condition_info: AS-MS, mixture library, Bcl-2; replicate n = 2; ASMS Ratio(%)=(A−C)/B×100
Report as a plain number; the unit % is understood.

Recorded results for 9 compounds are shown here.
>  <smiles_entry>
CCOc1cccc(-c2cc(CN3CCN(c4ccc(C(=O)NS(=O)(=O)CC56CC7CC(CC(C7)C5)C6)cc4)CC3)cc(OC(F)(F)F)c2)c1

>  <unit_spec>
%

>  <ASMS ratio (%) n = 2>
3.3

$$$$
>  <smiles_entry>
CCOc1cncc(-c2ccc(CN3CCN(c4ccc(C(=O)NS(=O)(=O)c5ccc(NCCSc6ccccc6)c([N+](=O)[O-])c5)cc4)CC3)c3ccccc23)c1

>  <unit_spec>
%

>  <ASMS ratio (%) n = 2>
36.9

$$$$
>  <smiles_entry>
CCOc1cncc(-c2ccc(CN3CCN(c4ccc(C(=O)N(CC)CC)cc4)CC3)c3ccccc23)c1

>  <unit_spec>
%

>  <ASMS ratio (%) n = 2>
−1.5

$$$$
>  <smiles_entry>
CCOc1cccc(-c2ccc(C(=O)N3CCN(c4ccc(C(=O)NS(=O)(=O)CC56CC7CC(CC(C7)C5)C6)nn4)CC3)cc2F)c1

>  <unit_spec>
%

>  <ASMS ratio (%) n = 2>
12.4

$$$$
>  <smiles_entry>
CCOc1cncc(-c2csc(CN3CCN(c4ccc(C(=O)NS(=O)(=O)c5ccc(NCCSc6ccccc6)c([N+](=O)[O-])c5)nn4)CC3)c2)c1

>  <unit_spec>
%

>  <ASMS ratio (%) n = 2>
2.5

$$$$
>  <smiles_entry>
CCOc1cccc(-c2ccccc2CN2CCN(c3ccc(C(=O)NS(=O)(=O)c4ccc(NCCSc5ccccc5)c([N+](=O)[O-])c4)cc3)CC2)c1

>  <unit_spec>
%

>  <ASMS ratio (%) n = 2>
49.9

$$$$
>  <smiles_entry>
CCOc1cncc(-c2cnn(-c3cc(C(=O)N4CCN(c5ccc(C(=O)NS(=O)(=O)CC67CC8CC(CC(C8)C6)C7)nn5)CC4)cc(C(F)(F)F)c3)c2)c1

>  <unit_spec>
%

>  <ASMS ratio (%) n = 2>
3.7

$$$$
>  <smiles_entry>
CCOc1cccc(C#Cc2cncc(C(=O)N3CCN(c4ccc(C(=O)NS(C)(=O)=O)cc4)CC3)c2)c1

>  <unit_spec>
%

>  <ASMS ratio (%) n = 2>
0.0

$$$$
>  <smiles_entry>
CCOc1cncc(-c2ccc(C(=O)N3CCN(c4ccc(C(=O)NS(=O)(=O)c5ccc(NCCSc6ccccc6)c([N+](=O)[O-])c5)nn4)CC3)c3ccccc23)c1

>  <unit_spec>
%

>  <ASMS ratio (%) n = 2>
14.5

$$$$

Proceeding to the next compound to report its ASMS ratio (%) n = 2.
Prompt line: Name the reported ASMS ratio (%) n = 2 value associated with the compound CCOc1cccc(-c2ccc(C(=O)N3CCN(c4ccc(C(=O)NS(C)(=O)=O)cc4)CC3)c3ccccc23)c1
Response line: 1.6

====

# assayed_system: Bcl-2 protein (Recombinant Human Bcl-2 Protein) (Homo sapiens)
# Construct: purchased Novus NBP2-34889
# procedure_details: Binding evaluation of mixture library compounds to Bcl-2 using AS-MS (affinity selection mass spectrometry)
# condition_info: AS-MS on the mixture of 1200 library compounds; ASMS Ratio(%)=(A−C)/B×100; replicate n = 2
measured_metric: ASMS ratio (%) n = 2
Field format: number, assumed %, no unit text.

>  <compound>
CCOc1cccc(C#Cc2ccccc2C(=O)N2CCN(c3ccc(C(=O)N(CC)CC)nn3)CC2)c1 [B4J007-01]

>  <assayed_system>
Bcl-2 protein (Recombinant Human Bcl-2 Protein) (Homo sapiens)

>  <ASMS ratio (%) n = 2>
1.5

$$$$
>  <compound>
CCOc1cccc(-c2ccc(C(=O)N3CCN(c4ccc(C(=O)N(C)CC56CC7CC(CC(C7)C5)C6)nn4)CC3)cc2F)c1 [B3A005-01]

>  <assayed_system>
Bcl-2 protein (Recombinant Human Bcl-2 Protein) (Homo sapiens)

>  <ASMS ratio (%) n = 2>
−4.8

$$$$
>  <compound>
CCOc1cccc(-c2ccc(CN3CCN(c4ccc(C(=O)N(CC)CC)cc4)CC3)cc2C)c1 [B4J047-01]

>  <assayed_system>
Bcl-2 protein (Recombinant Human Bcl-2 Protein) (Homo sapiens)

>  <ASMS ratio (%) n = 2>
0.0

$$$$

Prompt line: Find the recorded ASMS ratio (%) n = 2 belonging to CCOc1cncc(-c2cc(C(=O)N3CCN(c4ccc(C(=O)Nc5ccc(OC)cc5)cc4)CC3)cc(C(C)(C)C)c2)c1 [B1O038-01] and report it.
Response line: −0.7

Prompt line: What value of ASMS ratio (%) n = 2 has been recorded for this entry: CCOc1cccc(-c2cc(CN3CCN(c4ccc(C(=O)Nc5ccc(OC)cc5)nn4)CC3)cc(OCC)c2)c1 [B1O081-01]
Response line: −2.2

Prompt line: Fill blank: measured ASMS ratio (%) n = 2 of the compound CCOc1cccc(-c2cnn(-c3cc(C(=O)N4CCN(c5ccc(C(=O)Nc6ccc(OC)cc6)cc5)CC4)cc(C(F)(F)F)c3)c2)c1 [B1O043-01] is ____.
Response line: −5.0

Prompt line: // query ASMS ratio (%) n = 2 value for entry CCOc1cccc(-c2cc(CN3CCN(c4ccc(C(=O)N(C)CC56CC7CC(CC(C7)C5)C6)nn4)CC3)cc(OC(F)(F)F)c2)c1 [B3A089-01]
Response line: −7.2

Prompt line: Form field: reported ASMS ratio (%) n = 2 of CCOc1cccc(C#Cc2cc(C(=O)N3CCN(c4ccc(C(=O)N(C)CC56CC7CC(CC(C7)C5)C6)cc4)CC3)cc(C(F)(F)F)c2)c1 [B3A041-01]
Response line: 425.9

Prompt line: Which ASMS ratio (%) n = 2 is reported for this compound? CCOc1cccc(-c2cc(CN3CCN(c4ccc(C(=O)N(C)CC56CC7CC(CC(C7)C5)C6)cc4)CC3)cc(C(F)(F)F)c2)c1 [B3A061-01]
Response line: 421.3

Prompt line: Please report the recorded ASMS ratio (%) n = 2 for CCOc1cccc(-c2ccc(C(=O)N3CCN(c4ccc(C(=O)N(C)CC56CC7CC(CC(C7)C5)C6)cc4)CC3)cc2F)c1 [B3A027-01] .
Response line: −1.6

Prompt line: // returns reported ASMS ratio (%) n = 2 for input CCOc1cncc(-c2cc(CN3CCN(c4ccc(C(=O)N(CC)CC)cc4)CC3)cc(OCC)c2)c1 [B4J056-01]
Response line: −1.5

Prompt line: Need ASMS ratio (%) n = 2, item CCOc1cncc(-c2cc(C(=O)N3CCN(c4ccc(C(=O)Nc5ccc(OC)cc5)nn4)CC3)cc(C(C)(C)C)c2)c1 [B1O016-01]
Response line: 0.7

Prompt line: Request the reported ASMS ratio (%) n = 2 associated with CCOc1cncc(C#Cc2ccccc2C(=O)N2CCN(c3ccc(C(=O)N(C)CC45CC6CC(CC(C6)C4)C5)cc3)CC2)c1 [B3A030-01]
Response line: −15.2

These measurements were taken from patent US20240132431A1.
